Property: pIC50; scope: individual compounds
system.name: human TREX2 (residues M44-A279) (Homo sapiens (Human))
test: TREX2 Biochemical Assay (fluorescence assay measuring degradation of dsDNA substrate)
condition: 2.5 nM TREX2, 60 nM dsDNA substrate, 25 minutes at room temperature
pIC50: −log10 of the molar value.

# compound, system.name, pIC50
data = [
    ("Cn1c(C2CCCN(C(=O)c3ccccc3Cl)C2)nc(C(=O)Nc2cnoc2)c(O)c1=O (centres unmarked)", "human TREX2 (residues M44-A279) (Homo sapiens (Human))", "4.00 to 5.00"),
    ("CNC(=O)c1cc(C)cc(-c2nc(C(=O)Nc3cnoc3)c(O)c(=O)n2C)c1", "human TREX2 (residues M44-A279) (Homo sapiens (Human))", "5.00 to 6.00"),
    ("Cc1cc(Nc2cccc(C)n2)cc(-c2nc(C(=O)Nc3cnoc3)c(O)c(=O)n2C)c1", "human TREX2 (residues M44-A279) (Homo sapiens (Human))", "5.00 to 6.00"),
    ("Cn1c(-c2cccc(Br)c2OCCO)nc(C(=O)Nc2cnoc2)c(O)c1=O", "human TREX2 (residues M44-A279) (Homo sapiens (Human))", "> 6.00"),
    ("Cc1cc(C(=O)NC2CCOCC2)cc(-c2nc(C(=O)Nc3cnoc3)c(O)c(=O)n2C)c1", "human TREX2 (residues M44-A279) (Homo sapiens (Human))", "4.00 to 5.00"),
    ("Cn1c(-c2ccccc2-c2ccncc2)nc(C(=O)Nc2cnoc2)c(O)c1=O", "human TREX2 (residues M44-A279) (Homo sapiens (Human))", "4.00 to 5.00"),
    ("Cn1c(-c2cnn(Cc3ccccc3)c2)nc(C(=O)Nc2cnoc2)c(O)c1=O", "human TREX2 (residues M44-A279) (Homo sapiens (Human))", "4.00 to 5.00"),
    ("Cn1c(-c2ccccc2NCCCO)nc(C(=O)Nc2cnoc2)c(O)c1=O", "human TREX2 (residues M44-A279) (Homo sapiens (Human))", "< 4.00"),
]

----------
system.name: UniProtKB Q9BQ50
test: TREX2 Biochemical Assay (fluorescence assay measuring degradation of dsDNA substrate)
condition: 2.5 nM TREX2, 60 nM dsDNA substrate, 25 minutes at room temperature
Procedure: Degradation of the dsDNA liberates free fluorophore to produce a fluorescent signal. […] After a 5-minute incubation at room temperature, plates were read in a laser sourced Envision (Perkin-Elmer), measuring fluorescence at 615 nm following excitation w/570 nm light. […]
Property: IC50; scope: individual compounds

# compound, IC50
data = [
    ("Cn1c(C2CCCN(C(=O)c3ccccn3)C2)nc(C(=O)Nc2cnoc2)c(O)c1=O (centres unmarked)", "1 to 10 µM"),
    ("Cc1cc(C)cc(-c2nc(C(=O)Nc3cnoc3)c(O)c(=O)n2C)c1", "1 to 10 µM"),
    ("Cn1c([C@@H]2CCCN(C(=O)c3ccc(Cl)c(Cl)c3)C2)nc(C(=O)Nc2cnoc2)c(O)c1=O", "< 1 µM"),
    ("Cn1c([C@H]2CCCCN2CCO)nc(C(=O)Nc2cnoc2)c(O)c1=O", "> 100 µM"),
    ("Cn1c(-c2ccccc2Br)nc(C(=O)Nc2cnoc2)c(O)c1=O", "10 to 100 µM"),
    ("CN(C)C(=O)[C@H]1CCCN1c1nc(C(=O)Nc2cnoc2)c(O)c(=O)n1C", "10 to 100 µM"),
    ("Cn1c(C2CCCN(C(=O)c3cn[nH]c3)C2)nc(C(=O)Nc2cnoc2)c(O)c1=O (centres unmarked)", "10 to 100 µM"),
    ("CC(=O)N1CCN(c2nc(C(=O)Nc3cnoc3)c(O)c(=O)n2C)CC1", "10 to 100 µM"),
]

----------
system.name: human TREX2 (residues M44-A279) (Homo sapiens (Human), UniProt Q9BQ50)
Sequence (Q9BQ50 whole entry, the tested form may be a part): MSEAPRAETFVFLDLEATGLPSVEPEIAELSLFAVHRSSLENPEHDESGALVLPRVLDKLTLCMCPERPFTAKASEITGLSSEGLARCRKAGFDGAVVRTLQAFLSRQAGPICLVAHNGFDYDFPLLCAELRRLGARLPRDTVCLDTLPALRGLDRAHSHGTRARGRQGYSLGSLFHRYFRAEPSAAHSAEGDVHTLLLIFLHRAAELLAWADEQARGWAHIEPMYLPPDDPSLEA
test: TREX2 Biochemical Assay (fluorescence assay measuring degradation of dsDNA substrate)
condition: 2.5 nM TREX2, 60 nM dsDNA substrate, 25 minutes at room temperature
measured.parameter: IC50

# molecule, measured.parameter, result
records = [
    ("Cn1c(N2CC(OCc3ccccc3)C2)nc(C(=O)Nc2cnoc2)c(O)c1=O [Example 123]", "IC50", "10 to 100 µM"),
    ("Cc1cc(C(=O)NCCO)cc(-c2nc(C(=O)Nc3cnoc3)c(O)c(=O)n2C)c1 [Example 38]", "IC50", "10 to 100 µM"),
    ("Cn1c([C@H]2CCC[C@@H](NC(=O)c3ccc(Cl)c(Cl)c3)C2)nc(C(=O)Nc2cnoc2)c(O)c1=O [Example 82]", "IC50", "10 to 100 µM"),
    ("COc1ccccc1C(=O)N1CCCC(c2nc(C(=O)Nc3cnoc3)c(O)c(=O)n2C)C1 (centres unmarked) [Example 41]", "IC50", "10 to 100 µM"),
    ("Cn1c(C2CCCN(Cc3ccccc3)C2)nc(C(=O)Nc2cnoc2)c(O)c1=O (centres unmarked) [Example 39]", "IC50", "10 to 100 µM"),
    ("Cn1c(-c2cccc(Br)c2CCO)nc(C(=O)Nc2cnoc2)c(O)c1=O [Example 78]", "IC50", "1 to 10 µM"),
    ("Cn1c(C2CCCCN2C(=O)OC(C)(C)C)nc(C(=O)Nc2cnoc2)c(O)c1=O (centres unmarked) [Example 14]", "IC50", "1 to 10 µM"),
    ("Cn1c(N2CCC[C@@H]2c2ccccc2Cl)nc(C(=O)Nc2cnoc2)c(O)c1=O [Example 124]", "IC50", "1 to 10 µM"),
]

----------
system.name: UniProt:Q9BQ50
test: TREX2 Biochemical Assay (fluorescence assay measuring degradation of dsDNA substrate)
condition: 2.5 nM TREX2, 60 nM dsDNA substrate, 25 minutes at room temperature
measured.parameter: IC50

# compound, result
measured = [
    ("Cn1c(OC2CCCCC2)nc(C(=O)Nc2cnoc2)c(O)c1=O", "1 to 10 µM"),
    ("Cn1c(C2CCN(C(=O)OC(C)(C)C)CC2)nc(C(=O)Nc2cnoc2)c(O)c1=O", "10 to 100 µM"),
    ("Cn1c(-c2cccnc2)nc(C(=O)Nc2cnoc2)c(O)c1=O", "10 to 100 µM"),
    ("CN(C)CCCC(=O)N1CCCC(c2nc(C(=O)Nc3cnoc3)c(O)c(=O)n2C)C1 (centres unmarked)", "10 to 100 µM"),
    ("Cn1c(N2CC[C@H](C(N)=O)C2)nc(C(=O)Nc2cnoc2)c(O)c1=O", "10 to 100 µM"),
    ("Cn1c(C2(C)CCCN(C(=O)c3ccc(Cl)c(Cl)c3)C2)nc(C(=O)Nc2cnoc2)c(O)c1=O (centres unmarked)", "1 to 10 µM"),
    ("Cn1c(N2CCN(C(=O)c3ccccc3)CC2)nc(C(=O)Nc2cnoc2)c(O)c1=O", "10 to 100 µM"),
    ("Cn1c(C2CCCN(C(=O)c3cccnc3)C2)nc(C(=O)Nc2cnoc2)c(O)c1=O (centres unmarked) [Example 93]", "1 to 10 µM"),
    ("Cn1c(C(NC(=O)OCc2ccccc2)c2ccc(Br)cc2)nc(C(=O)Nc2cnoc2)c(O)c1=O (centres unmarked)", "> 100 µM"),
    ("Cn1c(C2CCCN(C(=O)Nc3ccccc3)C2)nc(C(=O)Nc2cnoc2)c(O)c1=O (centres unmarked)", "1 to 10 µM"),
    ("COc1cccc(C(=O)N2CCCC(c3nc(C(=O)Nc4cnoc4)c(O)c(=O)n3C)C2)c1 (centres unmarked)", "1 to 10 µM"),
    ("Cn1c(N2CC[C@@H](C(N)=O)C2)nc(C(=O)Nc2cnoc2)c(O)c1=O", "10 to 100 µM"),
    ("Cn1c(N2CCC[C@H]2c2ccccc2)nc(C(=O)Nc2cnoc2)c(O)c1=O", "1 to 10 µM"),
    ("Cn1c([C@H]2CCCN(C(=O)Cc3ccc(F)c(F)c3)C2)nc(C(=O)Nc2cnoc2)c(O)c1=O", "10 to 100 µM"),
    ("CC(C)C(=O)N1CCCC(c2nc(C(=O)Nc3cnoc3)c(O)c(=O)n2C)C1 (centres unmarked)", "10 to 100 µM"),
    ("Cc1cc(-c2nc(C(=O)Nc3cnoc3)c(O)c(=O)n2C)cc(N2CCOCC2)c1", "1 to 10 µM"),
    ("CC(=O)N1CCN(c2nc(C(=O)Nc3cnoc3)c(O)c(=O)n2C)[C@H](c2ccccc2Cl)C1", "< 1 µM"),
]

----------
Property: pIC50; scope: individual compounds
system.name: human TREX2 (residues M44-A279) (Homo sapiens (Human))
test: TREX2 Biochemical Assay (fluorescence assay measuring degradation of dsDNA substrate)
condition: 2.5 nM TREX2, 60 nM dsDNA substrate, 25 minutes at room temperature
pIC50: −log10 of the molar value.

# compound, pIC50
data = [
    ("C[C@@H](Cc1ccccc1)c1nc(C(=O)Nc2cnoc2)c(O)c(=O)n1C", "5.00 to 6.00"),
    ("Cn1c(CC2CCCN(C(=O)OC(C)(C)C)C2)nc(C(=O)Nc2cnoc2)c(O)c1=O (centres unmarked)", "4.00 to 5.00"),
    ("Cn1c([C@@H]2CCN(C(=O)c3ccc(Cl)cc3)C2)nc(C(=O)Nc2cnoc2)c(O)c1=O", "4.00 to 5.00"),
    ("Cn1c(C2(NC(=O)OCc3ccccc3)CC2)nc(C(=O)Nc2cnoc2)c(O)c1=O", "4.00 to 5.00"),
    ("CC(=O)N1CCCN(c2nc(C(=O)Nc3cnoc3)c(O)c(=O)n2C)CC1", "4.00 to 5.00"),
]

Data origin, for the record: patent US12172990B2
